Values from ChEMBL document CHEMBL4371061

# Organism: Homo sapiens
# TEST_METHOD_NOTES: Inhibition of Wnt/beta-catenin signaling pathway in human HCT116 cells cytosol lysate harboring beta-catenin mutation assessed as reduction in Axin2 protein expression at 5 uM after 18 hrs by Western blot analysis relative to control
# Assay type: subcellular
QUANTITY_KIND: inhibition (%)
API: value field is a number in %; no unit string.

// known answers, use as guide
1. O=C(Nc1ccc([N+](=O)[O-])cc1Cl)c1cc(Cl)ccc1O [NICLOSAMIDE] ... 35
2. O=[N+]([O-])c1ccc(-c2nnc(-c3cc(Cl)ccc3O)[nH]2)c(Cl)c1 ... 68
3. O=[N+]([O-])c1ccc(-c2nnc(-c3cc(Cl)ccc3O)[nH]2)cc1 ... 75

Moving on to the next compound.
Req: Find the recorded inhibition belonging to Oc1ccc(Cl)cc1-c1nnc(-c2ccc(C(F)(F)F)cc2)[nH]1 and report it.
Resp: 68

---

Entries and their score
# TESTED_TARGET: Frizzled-1 (Homo sapiens) (UniProt Q9UP38)
# Sequence (Q9UP38 70-647 limits assumed): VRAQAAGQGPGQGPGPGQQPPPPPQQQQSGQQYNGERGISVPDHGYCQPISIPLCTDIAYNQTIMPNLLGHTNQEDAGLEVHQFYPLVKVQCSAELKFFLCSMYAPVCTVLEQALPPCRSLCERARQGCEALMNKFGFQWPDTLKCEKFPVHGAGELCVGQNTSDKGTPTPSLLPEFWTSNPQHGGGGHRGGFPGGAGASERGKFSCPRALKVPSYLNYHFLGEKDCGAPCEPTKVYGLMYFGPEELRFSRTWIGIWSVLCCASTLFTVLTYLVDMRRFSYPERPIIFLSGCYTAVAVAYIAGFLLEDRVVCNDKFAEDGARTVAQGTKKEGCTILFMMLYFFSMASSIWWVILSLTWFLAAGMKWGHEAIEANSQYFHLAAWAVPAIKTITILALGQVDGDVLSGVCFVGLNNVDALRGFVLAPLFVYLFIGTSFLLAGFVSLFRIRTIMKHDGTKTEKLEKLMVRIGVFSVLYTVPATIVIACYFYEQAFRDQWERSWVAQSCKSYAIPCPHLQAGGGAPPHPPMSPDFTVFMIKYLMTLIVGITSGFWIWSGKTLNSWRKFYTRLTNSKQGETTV
# TEST_METHOD_NOTES: Induction of GFP-tagged Fzd1 (unknown origin) internalization expressed in human U2OS cells at 12.5 after 6 hrs by confocal microscopic method relative to control
# Type: cell-based
Answer using only a numeral; do not append any unit.

// known answers, use as guide
1. Oc1ccc(Cl)cc1-c1nnc(-c2ccc(F)cc2)[nH]1 ... 1
2. Oc1ccc(Cl)cc1-c1nnc(-c2ccc(C(F)(F)F)cc2)[nH]1 ... 2
3. O=[N+]([O-])c1ccc(-c2nnc(-c3cc(Cl)ccc3O)[nH]2)cc1 ... 4
4. O=C(NCc1ccc([N+](=O)[O-])cc1)c1cc(Cl)ccc1O ... 0
5. O=C(NC(=O)c1cc(Cl)ccc1O)c1ccc([N+](=O)[O-])cc1 ... 0

Req: Find the recorded score belonging to Oc1ccc(Cl)cc1-c1nnc(-c2ccccc2)[nH]1 and report it.
Resp: 0

Req: And then COc1ccc(-c2nnc(-c3cc(Cl)ccc3O)[nH]2)cc1 , what is it?
Resp: 0

Req: And then O=C(Nc1ccc([N+](=O)[O-])cc1Cl)c1cc(Cl)ccc1O [NICLOSAMIDE] , what is it?
Resp: 5

Req: And then O=[N+]([O-])c1ccc(-c2nnc(-c3cc(Cl)ccc3O)[nH]2)c(Cl)c1 , what is it?
Resp: 5

---

# Test system: SW480
# TEST_METHOD_NOTES: Inhibition of Wnt/beta-catenin signaling pathway in human SW480 whole cell lysate harboring APC mutation assessed as reduction in survivin protein expression at 5 uM after 18 hrs by Western blot analysis relative to control
# Format: subcellular
QUANTITY_KIND: inhibition (%)
API: value field is a number in %; no unit string.

// known answers, use as guide
1. O=[N+]([O-])c1ccc(-c2nnc(-c3cc(Cl)ccc3O)[nH]2)c(Cl)c1 ... 43
2. O=[N+]([O-])c1ccc(-c2nnc(-c3cc(Cl)ccc3O)[nH]2)cc1 ... 38
3. Oc1ccc(Cl)cc1-c1nnc(-c2ccc(C(F)(F)F)cc2)[nH]1 ... 56

Moving on to the next compound.
Req: Enter reported inhibition observed with SW480 for O=C(Nc1ccc([N+](=O)[O-])cc1Cl)c1cc(Cl)ccc1O [NICLOSAMIDE]
Resp: 41

---

# Species on record: Homo sapiens
# TEST_METHOD_NOTES: Inhibition of Wnt/beta-catenin signaling pathway in human HCT116 whole cell lysate harboring beta-catenin mutation assessed as reduction in cyclin D1 protein expression at 5 uM after 18 hrs by Western blot analysis relative to control
# Type: subcellular
Entries and their inhibition
API: value field is a number in %; no unit string.

1) Oc1ccc(Cl)cc1-c1nnc(-c2ccc(C(F)(F)F)cc2)[nH]1 ... 17
2) O=C(Nc1ccc([N+](=O)[O-])cc1Cl)c1cc(Cl)ccc1O [NICLOSAMIDE] ... 28
3) O=[N+]([O-])c1ccc(-c2nnc(-c3cc(Cl)ccc3O)[nH]2)cc1 ... 20

Moving on to the next compound.
Req: Find the recorded inhibition belonging to O=[N+]([O-])c1ccc(-c2nnc(-c3cc(Cl)ccc3O)[nH]2)c(Cl)c1 and report it.
Resp: 22

---

# Organism: Homo sapiens
# TEST_METHOD_NOTES: Inhibition of Wnt/beta-catenin signaling pathway in human HCT116 cells cytosol lysate harboring beta-catenin mutation assessed as reduction in beta-catenin protein expression at 5 uM after 18 hrs by Western blot analysis relative to control
# Assay type: subcellular
Entries and their inhibition
API: value field is a number in %; no unit string.

1) Oc1ccc(Cl)cc1-c1nnc(-c2ccc(C(F)(F)F)cc2)[nH]1 ... 6
2) O=C(Nc1ccc([N+](=O)[O-])cc1Cl)c1cc(Cl)ccc1O [NICLOSAMIDE] ... 46
3) O=[N+]([O-])c1ccc(-c2nnc(-c3cc(Cl)ccc3O)[nH]2)c(Cl)c1 ... 34

Req: Find the recorded inhibition belonging to O=[N+]([O-])c1ccc(-c2nnc(-c3cc(Cl)ccc3O)[nH]2)cc1 and report it.
Resp: 59

---

Entries and their inhibition
# Tested on: SW480
# TEST_METHOD_NOTES: Inhibition of Wnt/beta-catenin signaling pathway in human SW480 cells cytosol lysate harboring APC mutation assessed as reduction in beta-catenin protein expression at 5 uM after 18 hrs by Western blot analysis relative to control
# Type: subcellular
API: value field is a number in %; no unit string.

// known answers, use as guide
1. O=[N+]([O-])c1ccc(-c2nnc(-c3cc(Cl)ccc3O)[nH]2)c(Cl)c1 ... 69
2. O=[N+]([O-])c1ccc(-c2nnc(-c3cc(Cl)ccc3O)[nH]2)cc1 ... 67
3. Oc1ccc(Cl)cc1-c1nnc(-c2ccc(C(F)(F)F)cc2)[nH]1 ... 72

Moving on to the next compound.
Req: Find the recorded inhibition belonging to O=C(Nc1ccc([N+](=O)[O-])cc1Cl)c1cc(Cl)ccc1O [NICLOSAMIDE] and report it.
Resp: 74

---

# Species: Homo sapiens
# TEST_METHOD_NOTES: Inhibition of Wnt/beta-catenin signaling pathway in human HCT116 whole cell lysate harboring beta-catenin mutation assessed as reduction in survivin protein expression at 5 uM after 18 hrs by Western blot analysis relative to control
# Assay type: subcellular
QUANTITY_KIND: inhibition (%)
API: value field is a number in %; no unit string.

// known answers, use as guide
1) O=[N+]([O-])c1ccc(-c2nnc(-c3cc(Cl)ccc3O)[nH]2)cc1 ... 38
2) O=C(Nc1ccc([N+](=O)[O-])cc1Cl)c1cc(Cl)ccc1O [NICLOSAMIDE] ... 44
3) O=[N+]([O-])c1ccc(-c2nnc(-c3cc(Cl)ccc3O)[nH]2)c(Cl)c1 ... 38

Req: Find the recorded inhibition belonging to Oc1ccc(Cl)cc1-c1nnc(-c2ccc(C(F)(F)F)cc2)[nH]1 and report it.
Resp: 44

---

# System: SW480
# TEST_METHOD_NOTES: Inhibition of Wnt/beta-catenin signaling pathway in human SW480 whole cell lysate harboring APC mutation assessed as reduction in c-Myc protein expression at 5 uM after 18 hrs by Western blot analysis relative to control
# Format: subcellular
QUANTITY_KIND: inhibition (%)
API: value field is a number in %; no unit string.

// known answers, use as guide
1) O=[N+]([O-])c1ccc(-c2nnc(-c3cc(Cl)ccc3O)[nH]2)c(Cl)c1 ... 4
2) O=C(Nc1ccc([N+](=O)[O-])cc1Cl)c1cc(Cl)ccc1O [NICLOSAMIDE] ... 3
3) O=[N+]([O-])c1ccc(-c2nnc(-c3cc(Cl)ccc3O)[nH]2)cc1 ... 2

Req: Find the recorded inhibition belonging to Oc1ccc(Cl)cc1-c1nnc(-c2ccc(C(F)(F)F)cc2)[nH]1 and report it.
Resp: 2

---

# System: SW480
# TEST_METHOD_NOTES: Inhibition of Wnt/beta-catenin signaling pathway in human SW480 cells cytosol lysate harboring APC mutation assessed as reduction in Axin2 protein expression at 5 uM after 18 hrs by Western blot analysis relative to control
# Format: subcellular
QUANTITY_KIND: inhibition (%)
API: value field is a number in %; no unit string.

// known answers, use as guide
1) Oc1ccc(Cl)cc1-c1nnc(-c2ccc(C(F)(F)F)cc2)[nH]1 ... 58
2) O=[N+]([O-])c1ccc(-c2nnc(-c3cc(Cl)ccc3O)[nH]2)c(Cl)c1 ... 47

Req: Find the recorded inhibition belonging to O=C(Nc1ccc([N+](=O)[O-])cc1Cl)c1cc(Cl)ccc1O [NICLOSAMIDE] and report it.
Resp: 29

Req: And then O=[N+]([O-])c1ccc(-c2nnc(-c3cc(Cl)ccc3O)[nH]2)cc1 , what is it?
Resp: 44
